Measured growth, listed per entry.
- Test system: UACC-257 melanoma
- Method Description: NCI-60 one-dose screen, 48 h (100 = growth as untreated, 0 = no growth, -100 = all killed)
- Condition Context: 10 µM unless noted
This is part of a sample that, as a whole, favours compounds with a hit. Of some 83,000 tested, about 20% had one in any assay.
Measured Attribute: growth (%)

- Compound: "COc1ccc(CCN2CCCn3c2nc2ccccc2c3=O)cc1"
  Measurement: 81.3
- Compound: "Cc1ccc(-c2nc(/C=N/Nc3cc(C)nc4ccc(Cl)cc34)c(C)o2)cc1"
  Measurement: 107
- Compound: "COc1ccc(S(=O)(=O)NCCNc2nccc(-c3c(-c4cccc([N+](=O)[O-])c4)nc4sccn34)n2)cc1"
  Measurement: 106
- Compound: "O=C1C(Cl)=C(Cl)C(=O)c2c1nc1n2CCCC1"
  Measurement: 96
- Compound: "COc1cc(C2CC(=O)Nc3c2cnn3Cc2ccco2)cc2c1OCCO2 (stereo unspecified)"
  Measurement: 82.2
- Compound: "COc1cc(C2CC(=O)c3c(C)nn(-c4nc5ccccc5[nH]4)c3C2)cc(OC)c1OC (stereo unspecified)"
  Measurement: 98.7
- Compound: "COc1ccc(-n2cc(-c3ccccc3)c3c(SCC(=O)N/N=C/c4ccc([N+](=O)[O-])cc4)ncnc32)cc1"
  Measurement: 107
- Compound: "COc1ccc(-c2cc(NC(=O)Nc3ccc(O)cc3)no2)cc1"
  Measurement: 84.6
- Compound: "c1c2c(cc3c1OCO3)Cc1cc3c(cc1Cc1cc4c(cc1C2)OCO4)OCO3"
  Measurement: 84.6
- Compound: "Cc1ccc(/C=C2\\Oc3cc(OCC(=O)c4ccc(Cl)cc4)ccc3C2=O)cc1"
  Measurement: 98.1
- Compound: "CC(=O)Oc1ccc(Nc2c3ccccc3nc3ccccc23)cc1"
  Measurement: -25.7
- Compound: "O=C(O)c1c([N+](=O)[O-])cnc2ccccc12"
  Measurement: 97.1
- Compound: "O=C(COCc1c(-c2ccccc2)no[n+]1[O-])Nc1ccc(C(=O)/C=C/c2ccc3c(c2)OCO3)cc1"
  Measurement: 93.3
- Compound: "CC[C@H](Nc1ncnc(N)c1C(N)=O)c1nc2cccc(NCc3ccc(C(=O)NO)cc3)c2c(=O)n1-c1ccccc1"
  Measurement: 63.4
- Compound: "COc1ccc(/C(=C/c2ccc3ccccc3c2)c2nn[nH]n2)cc1OC"
  Measurement: 66.3
- Compound: "Cc1cc(N/N=C/c2nc(-c3ccc(Cl)cc3)oc2C)c2cc(Br)ccc2n1"
  Measurement: 101
- Compound: "COc1cc(NC(N)=NCC(C)(C)COc2ccc(C(F)(F)F)cc2)cnc1C#N"
  Measurement: 69.1
- Compound: "Cl/C(=N\\Nc1ccccc1)c1ccccc1"
  Measurement: 75.2
- Compound: "O=c1c2c3c(sc2n2c(CCl)nnc2n1Cc1ccccc1)CCCC3"
  Measurement: -53.6
- Compound: "CSc1[nH]c2ncnc(N)c2c1C#N"
  Measurement: 124
- Compound: "COc1cc(/C=C2\\CN(C(=O)CCN3CCC(=NO)CC3)C/C(=C\\c3cc(OC)c(OC)c(OC)c3)C2=O)cc(OC)c1OC"
  Measurement: -16.9
- Compound: "C(=N\\Nc1nnn(Cc2ccccc2)n1)/c1ccccc1"
  Measurement: 43.9
- Compound: "CC(=O)OCC1OC(OC2=C(CC=C(Cl)Cl)C(=O)c3ccccc3C2=O)C(OC(C)=O)C(OC(C)=O)C1OC(C)=O (stereo unspecified)"
  Measurement: 94
- Compound: "COc1ccc(C(=O)/C=C/c2c[n+](=O)c3ccc(F)cc3n2[O-])cc1"
  Measurement: 106
- Compound: "O=C1C(=O)N(CCCCn2cc(CO)nn2)c2ccccc21"
  Measurement: 105
- Compound: "CCN(CC)Cc1cc(Nc2c3ccc(Cl)cc3nc3c(C)cccc23)ccc1O"
  Measurement: -85.2

----------
Measured growth, listed per entry.
- Tested on: HCT-15 colon
- Method Description: NCI-60 one-dose screen, 48 h (100 = growth as untreated, 0 = no growth, -100 = all killed)
- Condition Context: 10 µM unless noted
- Procedure: Growth inhibition of the HCT-15 human tumor cell line is measured as a screen for anti-cancer activity. Cells are grown in 96 well plates and exposed to the test compound for 48 hours. Compounds are tested at a single concentration, which is 10^-5 M for most compounds. The reported endpoint is percent growth (GI% or GIPRCNT), where numbers from 0 - 100% represent growth inhibition, and numbers from -100% - 0 represent cell death. For example, a value of 40 represents 60% growth inhibition. […]
Compounds without any hit were thinned out: in the full panel of roughly 83,000, 20% have a hit. Active and inactive are the calls of the source. Rule for the calls: active = growth percent below 10; inactive = the rest.
Measured Attribute: growth

- Compound: "CC/C(Cc1ccccc1)=C(\\c1ccc(OCCN2CCCC2)cc1)c1ccc(OC(C)=O)cc1"
  Measured Attribute: "growth"
  Measurement: "60.5% (inactive)"
- Compound: "CS(=O)(CCCCN=C=S)=NC(=O)c1c(F)c(F)c(F)c(F)c1F (stereo unspecified)"
  Measured Attribute: "growth"
  Measurement: "59.4% (inactive)"
- Compound: "O=[N+]([O-])c1cccc(-c2nc3sccn3c2-c2ccnc(NCCNS(=O)(=O)c3ccc(C(F)(F)F)cc3)n2)c1"
  Measured Attribute: "growth"
  Measurement: "26.7% (inactive)"
- Compound: "COc1ccc(OCC(=O)Nc2ccc(-c3nc4ccccc4s3)cc2C)cc1"
  Measured Attribute: "growth"
  Measurement: "85.9% (inactive)"
- Compound: "O=[N+]([O-])c1c(F)cccc1Nc1cccc(F)c1"
  Measured Attribute: "growth"
  Measurement: "104% (inactive)"
- Compound: "CCCCOc1ccc(NC(=O)n2nc(NC(C)=O)c3cc(NC(C)=O)ccc32)cc1"
  Measured Attribute: "growth"
  Measurement: "88.9% (inactive)"
- Compound: "C=C(CN1CCN(c2cccc(C(F)(F)F)n2)CC1)c1ccc(C(=O)Nc2ccccc2N)cc1"
  Measured Attribute: "growth"
  Measurement: "12.9% (inactive)"
- Compound: "C=C1CCC2C3(C)COC(C)(C)OC3CCC2(C)C1C/C=C1/C(=O)OCC1OC(C)=O (stereo unspecified)"
  Measured Attribute: "growth"
  Measurement: "33.8% (inactive)"
- Compound: "COc1cc(NCCCCN=C(N)N)c2ncccc2c1"
  Measured Attribute: "growth"
  Measurement: "99.9% (inactive)"
- Compound: "CNc1cc2nc3cc(NC)c(C)cc3cc2cc1C"
  Measured Attribute: "growth"
  Measurement: "11.1% (inactive)"
- Compound: "CC[n+]1ccc2c(c1)C(=O)c1nccc3c1c-2nc1ccccc13"
  Measured Attribute: "growth"
  Measurement: "48.5% (inactive)"
- Compound: "O=C(O)c1cccnc1Br"
  Measured Attribute: "growth"
  Measurement: "97.6% (inactive)"
- Compound: "COc1cc(C#N)cc(OC)c1OCCN(CCOc1c(OC)cc(C#N)cc1OC)S(=O)(=O)c1ccc(C)cc1"
  Measured Attribute: "growth"
  Measurement: "108% (inactive)"
- Compound: "COc1cccc(-n2cc(-c3nc(Nc4cc(C)[nH]n4)c4ccccc4n3)nn2)c1"
  Measured Attribute: "growth"
  Measurement: "29.7% (inactive)"
- Compound: "COc1nc2c(cc1S(=O)(=O)c1ccccc1)CCc1c-2cnn1-c1ccc(Cl)cc1"
  Measured Attribute: "growth"
  Measurement: "93.8% (inactive)"
- Compound: "CCCCCCNC(=O)Oc1ccc(/C(=C(\\C)c2ccccc2)c2ccc(OCCN(CC)CC)cc2)cc1"
  Measured Attribute: "growth"
  Measurement: "4.48% (active)"
- Compound: "O=C(COCc1c(-c2ccccc2)no[n+]1[O-])Nc1ccc(C(=O)/C=C/c2ccc3c(c2)OCO3)cc1"
  Measured Attribute: "growth"
  Measurement: "104% (inactive)"
- Compound: "CC(=O)C1=C(O)C=C2Oc3c(C(=O)/C=C/c4ccccc4)c(O)c(C)c(O)c3[C@]2(C)C1=O"
  Measured Attribute: "growth"
  Measurement: "25.3% (inactive)"
- Compound: "CC1(C)CC(=O)C(c2c(-c3ccccc3)[nH]c3[nH]c(=S)[nH]c(=O)c23)=C(O)C1"
  Measured Attribute: "growth"
  Measurement: "112% (inactive)"
- Compound: "CN1CCCCC1CCN1c2ccccc2Sc2ccc(Br)cc21 (stereo unspecified)"
  Measured Attribute: "growth"
  Measurement: "54.6% (inactive)"
- Compound: "CCCCCCCCCCCCNC(=O)[C@H]1CSC(c2ccc(OC)c(F)c2)N1 (stereo partly specified)"
  Measured Attribute: "growth"
  Measurement: "-82.3% (active)"

----------
- Test system: HCT-116 colon
- Method Description: NCI-60 one-dose screen, 48 h (100 = growth as untreated, 0 = no growth, -100 = all killed)
- Condition Context: 10 µM unless noted
Compounds without any hit were thinned out: in the full panel of roughly 83,000, 20% have a hit.
Measured growth, listed per entry.

- Compound: "c1ccc2sc(SCCCn3ccnc3)nc2c1"
  Assay System: "HCT-116 colon"
  growth / %: 92.5
- Compound: "O=C(Nc1ccc(Oc2ccc(F)cc2)c(Cl)c1)c1cccnc1"
  Assay System: "HCT-116 colon"
  growth / %: 88.2
- Compound: "CCN(CC)CCCC(C)Nc1ccnc2c(OC)cccc12 (stereo not given)"
  Assay System: "HCT-116 colon"
  growth / %: 112
- Compound: "CC/C(=C(\\c1ccc(O)cc1)c1ccc(OCCN(C)CCN(C)C(=O)CCCCC(=O)c2c(C)[nH]c(/C=C3\\N=C(c4ccc[nH]4)C=C3OC)c2C)cc1)c1ccccc1"
  Assay System: "HCT-116 colon"
  growth / %: 56.3
- Compound: "Cc1ccccc1CCO"
  Assay System: "HCT-116 colon"
  growth / %: 93.6
- Compound: "COc1ccc(C2c3ccc4ccccc4c3Oc3ncnc(N)c32)cc1 (stereo not given)"
  Assay System: "HCT-116 colon"
  growth / %: 92.9
- Compound: "N#Cc1c(N)nc(N)nc1Nc1ccc(Br)cc1"
  Assay System: "HCT-116 colon"
  growth / %: 137
- Compound: "CN1CCN(Cc2ccc(NC(=O)c3[nH]ncc3Nc3ncnc4[nH]ccc34)cc2)CC1"
  Assay System: "HCT-116 colon"
  growth / %: 2.81
- Compound: "COc1cc2c(cc1O)CCc1cc(O)cc(OC)c1-2"
  Assay System: "HCT-116 colon"
  growth / %: 93.7
- Compound: "CC/C=C\\C[C@H](O)C/C=C1/C(=O)C=C[C@@H]1C/C=C\\CCCC(N)=O"
  Assay System: "HCT-116 colon"
  growth / %: -69
- Compound: "COc1ccc(/C=C/C(=O)c2ccc(NC(=O)c3cc4cc5ccccc5nc4s3)cc2)cc1OC"
  Assay System: "HCT-116 colon"
  growth / %: 91.6
- Compound: "COc1ncc(-c2ccc3ncnc(Nc4cccc(Cl)c4)c3c2)cc1NS(C)(=O)=O"
  Assay System: "HCT-116 colon"
  growth / %: 47
- Compound: "c1c2c(cc3c1OCO3)Cc1cc3c(cc1Cc1cc4c(cc1C2)OCO4)OCO3"
  Assay System: "HCT-116 colon"
  growth / %: 115
- Compound: "Cc1noc(C)c1-c1cc(O)cc(C(O)c2ccccc2)c1 (stereo not given)"
  Assay System: "HCT-116 colon"
  growth / %: 58.1
- Compound: "CSc1nc(NCCCNc2ccnc3cc(Cl)ccc23)cc(-c2ccccc2)n1"
  Assay System: "HCT-116 colon"
  growth / %: 43.1
